The measured values listed here are drawn from patent US20240115557A1.

# ASSAYED_TARGET: UniProt:Q99ZW2
# TEST_DETAILS: eGFP disruption assay, SpCas9, U2OS.eGFP.PEST cells
# Assay type: cell-based
# CONDITION_INFO: replicate 2, raw readout
READOUT_KIND: SpCas9 eGFP disruption Rep2
Lab note: record just the number, no unit beside it.

Consider the worked cases shown below.
1. N#Cc1[nH]c(=O)n(Cc2ccccc2)c1N = 60.748
2. Fc1ccc(-c2nn3c(-c4ccncc4)nnc3s2)cc1Br = 60.422
3. CN(C)c1cccc(-c2nn3c(-c4ccc5ccccc5c4)nnc3s2)c1 = 46.376
4. Clc1cccc(-c2nnc3sc(-c4ccc5ccccc5n4)nn23)c1 = 57.037
5. COc1ccc(C2CNC(=O)C2)cc1OC1CCCC1 (stereo not drawn) = 71.027
6. COc1ccc(Cc2nnc3sc(-c4ccccc4OC)nn23)cc1 = 56.714
7. Cc1ccc(-c2nc(CN3CCCC(C(=O)Nc4cc(C)ccc4O)C3)no2)cc1 (stereo not drawn) = 74.702
8. Cc1[nH]nc2ccc(-c3cncc(OCC(N)Cc4ccccc4)c3)cc12 (stereo not drawn) = 9.7985

Query: For `CC(C)(C)OC(=O)NCCOc1ccc(S(=O)(=O)CCC(=O)Nc2nc(-c3ccncc3)cs2)cc1` , what is its reported SpCas9 eGFP disruption Rep2?
Result: 57.456

---

# ASSAYED_TARGET: SpCas9 (Streptococcus pyogenes serotype M1)
# TEST_DETAILS: Strand displacement assay (SDA) / cumulative activity assay (CAA), SpCas9 primary screen
# Type: biochemical
# CONDITION_INFO: Primary Screen (150 min); replicate 2
READOUT_KIND: Normalized Z score 2
A bare number is all that is needed in reply.

Example molecules with recorded Normalized Z score 2:
1. Cc1ccc(Cl)cc1NC(=O)C1=NCCN1 = 0.12
2. CN1CCN(c2ccc(CNC(=O)Cn3ccc4c(SCc5ccccc5)nccc43)cc2)CC1 = 0.07
3. O=C(O)CSc1nnc(NC2CCCCC2)s1 = 0.05

Query: Param readout = Normalized Z score 2; param system = SpCas9 (Streptococcus pyogenes serotype M1); param query = `CC(C)CNC(=O)c1ccc(Oc2ccnc(-c3ccc(F)cc3)n2)cc1` ; response: value
Result: 0.37

Query: Consider next the molecule O=C(COC(=O)c1cc(O)c(O)c(O)c1)NC1CCCc2ccccc21 (centres unmarked) in the same way.
Result: 0.23

---

# ASSAYED_TARGET: UniProtKB J7RUA5
# TEST_DETAILS: eGFP secondary assay, SaCas9
# Format: cell-based
# CONDITION_INFO: average of two replicates, Zscore>3 selected as hit
READOUT_KIND: Z score Avg Z
Simply state the number, no unit and no words.

Known Z score Avg Z results, listed for orientation:
1) Cc1cc(=O)c2cc(C(=O)Nc3ccc(F)cc3)ccc2[nH]1 [D421-0876] = 3.719
2) Cc1nc2nc(N(CCOc3ccccc3)S(=O)(=O)c3ccccc3)nn2c(C)c1Cl [D513-3628] = 5.173
3) CCOc1ccc(NC(=O)c2cc(=O)c3cc(CC)ccc3o2)c2cccnc12 [Compound D656-0061] = 3.973

Query: # get_value(readout='Z score Avg Z', item= CCCCn1nnnc1NCc1ccc2c(c1)n(C)c(=O)n2C [Compound D664-0047] )
Result: 4.425

Query: Same question for Cc1cc(-c2nn3c(-c4cccc(F)c4)nnc3s2)c2ccccc2n1 [D727-0417] please.
Result: 3.995

Query: Let us now turn to CC(=O)Nc1ccc(C(=O)Nc2ccc(CCc3nc4ccccc4n3-c3ccccc3)cc2)cc1 [F255-0057]
Result: 5.773

Query: Now the same for Cc1nc(Nc2ccc(N3CCOCC3)cc2)cc(-c2ccccc2)n1 [D278-0547]
Result: 4.467

Query: Do the same for Cc1nn(-c2ccccc2)c(C)c1CCc1nnc2sc(-c3ccc(N(C)C)cc3)nn12 [D727-0717] please
Result: 6.053

Query: Similarly, O=C1c2ccccc2C(=O)c2oc(-c3ccc(F)cc3)nc21 [T0502-0200] ?
Result: 3.138

Query: Same lookup for O=C(NCCCN1CCC(N2CCCCC2)CC1)C1=Cc2sc3c(c2CS1)CCCC3 [E722-2652] , please.
Result: 5.750

Query: Try Cc1occc1-c1nnc2sc(-c3c[nH]c4ccccc34)nn12 [Compound D727-0786] next.
Result: 5.097

Query: # repeat for Fc1cccc(-c2nnc3sc(-c4c[nH]c5ccccc45)nn23)c1 [Compound D727-0772]
Result: 3.957

Query: For O=c1oc2c(O)c(O)ccc2c2c1CCCC2 [D715-2438] then?
Result: 3.681

Query: Entry to check: CNC(=O)c1sc(=S)n2c1[nH]c(=O)c1cc(Br)ccc12 [F083-0285]
Result: 3.318

Query: Next compound: Cc1ccccc1CC(=O)N1CCCC(c2nc(O)c3nnn(Cc4ccc(F)cc4)c3n2)C1 (stereo not drawn) [D297-0031]
Result: 3.488

Query: Request: COc1ccccc1-c1nn2c(-c3cccnc3)nnc2s1 [D727-0059]
Result: 3.290

Query: # repeat for Cc1ccc(C)c(Nc2nc(C(N)=O)c(NC(=O)c3ccc(C)nc3Cl)s2)c1 [D686-0195]
Result: 6.110

Query: Input Cc1ccc(-n2ncc(C(=O)Nc3ccc(Br)cc3)c2C2CCNCC2)cc1 [Compound E922-0258]
Result: 7.627

---

# ASSAYED_TARGET: SaCas9 (Staphylococcus aureus)
# Sequence (J7RUA5 whole entry): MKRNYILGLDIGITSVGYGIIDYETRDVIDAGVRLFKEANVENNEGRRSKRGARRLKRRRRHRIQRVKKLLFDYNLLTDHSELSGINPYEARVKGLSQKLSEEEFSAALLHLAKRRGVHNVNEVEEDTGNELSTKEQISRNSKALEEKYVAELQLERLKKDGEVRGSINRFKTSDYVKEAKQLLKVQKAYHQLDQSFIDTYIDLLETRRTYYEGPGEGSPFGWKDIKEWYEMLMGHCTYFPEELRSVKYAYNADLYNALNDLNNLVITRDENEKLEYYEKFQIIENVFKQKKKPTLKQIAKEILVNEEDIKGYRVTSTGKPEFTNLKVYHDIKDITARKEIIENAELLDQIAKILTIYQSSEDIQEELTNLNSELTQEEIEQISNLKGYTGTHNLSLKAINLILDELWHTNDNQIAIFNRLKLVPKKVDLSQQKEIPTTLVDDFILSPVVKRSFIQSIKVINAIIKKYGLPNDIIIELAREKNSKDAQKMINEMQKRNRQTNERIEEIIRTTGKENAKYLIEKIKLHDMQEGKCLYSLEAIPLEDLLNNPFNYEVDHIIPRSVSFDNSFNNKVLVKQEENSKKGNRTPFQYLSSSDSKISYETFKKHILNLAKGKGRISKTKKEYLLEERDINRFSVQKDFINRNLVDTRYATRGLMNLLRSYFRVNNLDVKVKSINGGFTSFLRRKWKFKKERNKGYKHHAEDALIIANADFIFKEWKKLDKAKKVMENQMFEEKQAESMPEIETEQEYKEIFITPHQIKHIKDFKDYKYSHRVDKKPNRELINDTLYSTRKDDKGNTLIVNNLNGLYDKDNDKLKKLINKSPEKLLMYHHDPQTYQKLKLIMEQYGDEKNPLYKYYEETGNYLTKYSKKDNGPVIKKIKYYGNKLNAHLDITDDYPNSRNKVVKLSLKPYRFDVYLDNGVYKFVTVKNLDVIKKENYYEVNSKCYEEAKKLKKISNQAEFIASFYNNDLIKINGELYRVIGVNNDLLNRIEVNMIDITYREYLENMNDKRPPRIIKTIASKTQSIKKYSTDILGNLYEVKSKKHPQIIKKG
# TEST_DETAILS: Strand displacement assay, SaCas9 primary screen
# Format: biochemical
# CONDITION_INFO: SaCas9 primary screen, Auto Zscore, replicate 2
Rule: Auto Zscore Rep 2 of 0.8 or more gives YES; anything lower gives NO.

1) Cc1cccc(Cn2c(SCC(O)CO)nc3c2c(=O)[nH]c(=O)n3C)c1 (centres unmarked) = NO
2) O=C(NCCCN1CCC(N2CCCCC2)CC1)C1=Cc2sc3c(c2CS1)CCCC3 = NO
3) COc1ccc2cc3c(N)nn(C(=O)c4ccncc4)c3nc2c1 = NO

Query: Reported Auto Zscore Rep 2 reaches at least 0.8 for `CCN(Cc1ccccc1)c1ccc(NS(=O)(=O)c2cc(C)ccc2C)cc1C(=O)O` ?
Result: YES

Query: Item: `O=C1c2cccc3cccc(c23)N1S(=O)(=O)c1cccs1`
Result: YES

---

# ASSAYED_TARGET: SpCas9 (Streptococcus pyogenes serotype M1, UniProt Q99ZW2)
# Sequence (Q99ZW2 whole entry): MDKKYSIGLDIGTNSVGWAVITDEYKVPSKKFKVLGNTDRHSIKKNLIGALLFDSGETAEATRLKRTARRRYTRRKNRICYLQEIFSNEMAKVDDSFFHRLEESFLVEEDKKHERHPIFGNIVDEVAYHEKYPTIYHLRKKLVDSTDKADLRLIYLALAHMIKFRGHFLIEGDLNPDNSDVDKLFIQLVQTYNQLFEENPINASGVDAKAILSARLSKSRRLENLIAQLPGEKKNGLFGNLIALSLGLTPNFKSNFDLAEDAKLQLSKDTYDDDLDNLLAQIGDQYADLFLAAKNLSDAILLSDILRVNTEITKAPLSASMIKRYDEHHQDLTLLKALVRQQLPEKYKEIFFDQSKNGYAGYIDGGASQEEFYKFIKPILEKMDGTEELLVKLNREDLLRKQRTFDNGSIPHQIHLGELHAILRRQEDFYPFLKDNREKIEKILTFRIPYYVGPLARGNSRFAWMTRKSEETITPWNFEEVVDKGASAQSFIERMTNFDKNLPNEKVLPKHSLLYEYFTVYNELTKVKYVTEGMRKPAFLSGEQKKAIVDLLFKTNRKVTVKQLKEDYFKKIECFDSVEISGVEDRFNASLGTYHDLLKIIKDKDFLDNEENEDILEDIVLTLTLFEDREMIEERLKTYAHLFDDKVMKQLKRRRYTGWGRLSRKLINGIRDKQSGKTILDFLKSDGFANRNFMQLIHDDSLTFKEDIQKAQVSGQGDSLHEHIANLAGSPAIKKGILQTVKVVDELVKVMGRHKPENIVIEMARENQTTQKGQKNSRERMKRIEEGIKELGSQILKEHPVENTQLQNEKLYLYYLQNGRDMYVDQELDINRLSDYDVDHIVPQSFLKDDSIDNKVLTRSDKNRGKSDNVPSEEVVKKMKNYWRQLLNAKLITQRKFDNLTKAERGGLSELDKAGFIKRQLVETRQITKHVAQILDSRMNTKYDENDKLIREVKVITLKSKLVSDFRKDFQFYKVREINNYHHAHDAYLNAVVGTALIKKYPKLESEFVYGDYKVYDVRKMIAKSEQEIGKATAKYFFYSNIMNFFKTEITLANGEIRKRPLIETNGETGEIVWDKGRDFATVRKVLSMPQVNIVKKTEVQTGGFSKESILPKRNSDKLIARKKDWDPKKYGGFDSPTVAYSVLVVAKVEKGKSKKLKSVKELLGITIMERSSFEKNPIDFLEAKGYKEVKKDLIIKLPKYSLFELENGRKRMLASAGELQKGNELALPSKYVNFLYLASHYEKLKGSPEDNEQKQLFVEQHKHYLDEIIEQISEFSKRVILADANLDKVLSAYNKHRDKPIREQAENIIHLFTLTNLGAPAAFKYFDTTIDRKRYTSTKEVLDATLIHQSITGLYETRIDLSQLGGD
# TEST_DETAILS: eGFP disruption assay, SpCas9, U2OS.eGFP.PEST cells
# Format: cell-based
# CONDITION_INFO: replicate 1
Consider the following compounds and their measured Normalized Z rep1 readings.
Reply briefly: the number, and no unit.

Take a look at these entries with their results.
1) O=C(O)c1ccc(N2CCN(c3ccccn3)CC2)c(NC(=O)c2ccc(Br)cc2)c1 = −0.11
2) NS(=O)(=O)c1ccc(CCNC(=O)C2=Cc3sc4c(c3CS2)CCCC4)cc1 = −0.16
3) O=C(Nc1nc(-c2ccccc2)c(C(=O)c2ccccc2)s1)c1ccc2c(c1)OCCO2 = −0.08

--- query ---
Query: Look up Normalized Z rep1 for this compound: `C=Cc1ccc(CSC2=NS(=O)(=O)c3ccccc3N2)cc1`
Result: −0.17

---

This listing pairs compounds with measured Z socre Rep2.
# ASSAYED_TARGET: SpCas9 (Streptococcus pyogenes serotype M1)
# TEST_DETAILS: eGFP disruption assay, SpCas9, U2OS.eGFP.PEST cells
# Type: cell-based
# CONDITION_INFO: replicate 2
Respond numerically, and do not add a unit to the figure.

Would you please look over these solved cases?
1) CCCN1CCN(c2ccc(C(=O)O)cc2NC(=O)c2ccccc2Cl)CC1 [Compound F086-0004] = −2.70
2) Cc1ccccc1C(=O)Nc1nc2ccc(S(N)(=O)=O)cc2s1 [Compound G786-1547] = 9.85
3) C=CC1=C(C(=O)O)N2C(=O)[C@@H](NC(=O)C(=NOCC(=O)O)c3csc(N)n3)[C@H]2SC1.O [SAM001246816] = −1.15
4) Cc1nc2ccccc2c(C)c1CC(=O)N1CCN(c2ccc(O)cc2)CC1 [Compound T5461482] = 6.37
5) Cc1nc2ccccc2n1Cc1nnc2sc(-c3cccnc3)nn12 [Compound D727-0182] = 1.30

Query: Provide the documented Z socre Rep2 with SpCas9 (Streptococcus pyogenes serotype M1) as the system for O=C(O)c1ccc(N2CCN(c3ccccn3)CC2)c(NC(=O)c2ccc(Br)cc2)c1 [Compound F086-0619]
Result: −1.83

Query: Queued: COc1ccc(Cc2nnc3sc(Cc4ccc(OC)c(OC)c4)nn23)cc1 [Compound D727-0165]
Result: −0.43

Query: Another compound: COc1ccc(CCc2nnc3sc(-c4ccncc4)nn23)cc1OC [Compound D727-0712]
Result: −2.66

Query: Please do the same for Cc1nn(-c2ccccc2)c(C)c1CCc1nn2c(-c3cccc(F)c3)nnc2s1 [Compound D727-0828] as well.
Result: −1.34

Query: // query: O=C(NCc1ccc2c(c1)OCO2)c1cccc(Oc2cc(-c3ccccc3)ncn2)c1 [Compound L663-1076]
Result: −0.12

Query: Now the compound NC(=O)c1sc(=S)n2c1[nH]c(=O)c1cc(Cl)ccc12 [Compound F083-0005]
Result: −1.09
